Entry source: patent US8569267B2

MEASUREMENT TARGET: human cloned 5-HT2A receptor, expressed in L929 cells (Homo sapiens, UniProt P28223)
Construct: expressed in transfected cells; host or cells: L929 cells
Sequence (P28223 whole entry): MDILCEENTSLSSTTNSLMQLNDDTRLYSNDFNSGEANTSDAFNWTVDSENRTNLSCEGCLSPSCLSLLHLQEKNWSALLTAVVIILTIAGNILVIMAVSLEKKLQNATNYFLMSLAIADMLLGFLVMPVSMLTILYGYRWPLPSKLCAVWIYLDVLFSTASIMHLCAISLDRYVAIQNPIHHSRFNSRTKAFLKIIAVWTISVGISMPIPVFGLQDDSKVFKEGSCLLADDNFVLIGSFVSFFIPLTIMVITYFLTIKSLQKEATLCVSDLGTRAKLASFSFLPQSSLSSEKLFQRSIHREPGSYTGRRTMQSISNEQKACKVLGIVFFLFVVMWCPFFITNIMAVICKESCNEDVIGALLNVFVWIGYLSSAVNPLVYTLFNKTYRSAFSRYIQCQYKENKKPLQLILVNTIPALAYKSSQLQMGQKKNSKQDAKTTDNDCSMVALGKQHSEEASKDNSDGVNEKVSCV
TEST DETAILS: In vitro binding affinity for 5-HT2A receptor ([125I]R91150 radioligand binding)
PROTOCOL CONDITIONS: human cloned 5-HT2A receptor in L929 cells, [125I]R91150; read-out: 5-HT2A pIC50 (converted)
Exam item: assign y to entries whose IC50 is below 8 nM and n to entries at or above 8 nM. Note that a value of exactly 8 nM receives n.

Solved entries:
> print(dat)
                                   molecule                        measurement.target  category.label
1  COCC1CCCN1CC1CC2c3ccccc3Cc3ccc(F)cc3C2O1 (mixture of isomers) [Compound 38]  human cloned 5-HT2A receptor, expressed in L929 cells (Homo sapiens, UniProt P28223)               n
2  O=C(NCc1cccc(C(F)(F)F)c1)N1CCN(CC2CC3c4ccccc4Cc4ccc(F)cc4C3O2)CC1 (stereo not drawn) [Compound 101]  human cloned 5-HT2A receptor, expressed in L929 cells (Homo sapiens, UniProt P28223)               y

Query block: For COC(CNC(=O)N1CCN(CC2CC3c4ccccc4Cc4ccc(F)cc4C3O2)CC1)OC (stereo not drawn) [Compound 91] , is the recorded IC50 below the cut-off of 8 nM?
Result block: y
